- Tested on: KARPAS299
- measurement-protocol: cells
- Parameters: CellTiter-Glo viability of fusion-positive human cancer cell lines
- test-conditions: Homo sapiens, KARPAS-299, 72 h; read-out: Entrectinib IC50
measure-name: IC50 (nM)

| test-smiles | measure-name | unit-spec | data-value |
| --- | --- | --- | --- |
| CN1CCN(c2ccc(C(=O)Nc3n[nH]c4ccc(Cc5cc(F)cc(F)c5)cc34)c(NC3CCOCC3)c2)CC1 | IC50 | nM | 42 |

====

- Test system: KARPAS299
- measurement-protocol: cells
- Set-up: CellTiter-Glo viability of fusion-positive human cancer cell lines
- test-conditions: Homo sapiens, KARPAS-299, 72 h, read-out: Lorlatinib IC50
pIC50: −log10 of the molar value.
measure-name: pIC50

| molecule | data-value |
| --- | --- |
| C[C@H]1Oc2cc(cnc2N)-c2c(nn(C)c2C#N)CN(C)C(=O)c2ccc(F)cc21 [lorlatinib] | 8.64 |

====

- Tested on: JFCR-018-1
- measurement-protocol: cells
- Design: CellTiter-Glo viability of fusion-positive human cancer cell lines
- test-conditions: 72 h; read-out: Brigatinib IC50
measure-name: IC50 (nM)

| compound | measure-name | unit-spec | data-value |
| --- | --- | --- | --- |
| COc1cc(N2CCC(N3CCN(C)CC3)CC2)ccc1Nc1ncc(Cl)c(Nc2ccccc2P(C)(C)=O)n1 [Brigatinib] | IC50 | nM | 7.7 |

====

- System: H2228
- measurement-protocol: cells
- Parameters: CellTiter-Glo viability of fusion-positive human cancer cell lines
- test-conditions: Homo sapiens, NCI-H2228, 72 h; read-out: Ceritinib IC50
measure-name: IC50

| test-smiles | measure-name | data-value |
| --- | --- | --- |
| Cc1cc(Nc2ncc(Cl)c(Nc3ccccc3S(=O)(=O)C(C)C)n2)c(OC(C)C)cc1C1CCNCC1 | IC50 | 10 nM |

====

- System: NTRK1
- measurement-protocol: cells
- Parameters: species or system Ba/F3; CellTiter-Glo viability of Ba/F3 cells dependent on TPM3-NTRK1, without IL-3
- test-conditions: Mus musculus, BaF3, 72 h, read-out: Lorlatinib IC50 Ba/F3 NTRK WT

| test-smiles | IC50 / nM |
| --- | --- |
| C[C@H]1Oc2cc(cnc2N)-c2c(nn(C)c2C#N)CN(C)C(=O)c2ccc(F)cc21 | 133 |

====

- Tested on: H2228
- measurement-protocol: cells
- Set-up: CellTiter-Glo viability of fusion-positive human cancer cell lines
- test-conditions: Homo sapiens, NCI-H2228, 72 h, read-out: Alectinib IC50
measure-name: IC50 (nM)

| compound | data-value |
| --- | --- |
| CCc1cc2c(cc1N1CCC(N3CCOCC3)CC1)C(C)(C)c1[nH]c3cc(C#N)ccc3c1C2=O [alectinib] | 3.8 |

====

- Tested on: MCC-003
- measurement-protocol: cells
- Set-up: CellTiter-Glo viability of fusion-positive human cancer cell lines
- test-conditions: 72 h, read-out: Alectinib IC50
measure-name: IC50 (nM)

| molecule | unit-spec | data-value |
| --- | --- | --- |
| CCc1cc2c(cc1N1CCC(N3CCOCC3)CC1)C(C)(C)c1[nH]c3cc(C#N)ccc3c1C2=O [alectinib] | nM | 765 |
